- measurementTarget: T1, PKC-δ (purified isoform) (Homo sapiens (Human), UniProt Q05655 1-676)
- T1 construct: also called PKC-delta; PKCdelta
- T1 sequence (Q05655 whole entry, stated change not applied, canonical isoform): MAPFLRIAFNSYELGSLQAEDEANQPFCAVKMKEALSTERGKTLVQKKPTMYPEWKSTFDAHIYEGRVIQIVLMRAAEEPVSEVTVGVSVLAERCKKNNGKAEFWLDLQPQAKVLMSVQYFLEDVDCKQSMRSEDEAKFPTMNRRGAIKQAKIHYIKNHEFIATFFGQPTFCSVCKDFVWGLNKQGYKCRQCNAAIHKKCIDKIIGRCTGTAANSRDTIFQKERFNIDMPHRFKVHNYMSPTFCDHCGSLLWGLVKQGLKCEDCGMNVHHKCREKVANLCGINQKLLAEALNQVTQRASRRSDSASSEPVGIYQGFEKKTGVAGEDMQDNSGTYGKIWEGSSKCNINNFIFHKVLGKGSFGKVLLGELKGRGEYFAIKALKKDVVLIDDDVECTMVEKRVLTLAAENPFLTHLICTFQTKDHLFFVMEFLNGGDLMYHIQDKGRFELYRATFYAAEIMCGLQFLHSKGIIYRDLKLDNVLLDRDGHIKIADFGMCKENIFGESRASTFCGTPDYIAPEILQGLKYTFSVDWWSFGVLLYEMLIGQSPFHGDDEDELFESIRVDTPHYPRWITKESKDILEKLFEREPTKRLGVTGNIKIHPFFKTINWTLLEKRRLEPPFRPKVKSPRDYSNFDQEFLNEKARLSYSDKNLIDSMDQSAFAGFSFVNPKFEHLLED
- protocolSummary: competitive ELISA on purified PKC-δ vs anti-PKC-δ Ab; PRE 50 µM
Lab note: anything with binding capacity (%) at or over 3% counts as class 1; the rest go in class 0.

// below: answered binders
Ac-AKGIQEVKGGKDAQNLIGISI-NH2 (Synthetic peptide; also called peptide PRE 5) [PRE 5] :: class 0
Ac-KDANQLIGISI-NH2 (Synthetic peptide; also called peptide PRE 6) [PRE 6] :: class 1
Ac-KDAQNLIGISI-NH2 (Synthetic peptide; also called peptide PRE 4) [PRE 4] :: class 1
Ac-KDAQNLI-NH2 (Synthetic peptide; also called peptide PRE 12; Ac-KDAQNLI-NH2) [PRE 12] :: class 0
ILEDKGGDAQNLIGISI (Synthetic peptide; termini given free; also called peptide PRE 8) [PRE 8] :: class 1

Now examine the next entry.
Data request: Does the reported binding capacity (%) for Ac-AKGIQEVKGGDAQNLIGISI-NH2 (Synthetic peptide; also called peptide PRE 3) [PRE 3] fall at or above the 3% mark?
Data returned: class 1

Taken from patent US20100041597A1.
